System: NCI-H460
assay remarks: Antitumor activity against human NCI-H460 cells by sulforhodamine B assay
Assay type: functional
Hi there, I'd appreciate the recorded GI50 for every entry that follows.
Numbers only, in µg/mL.

Study these solved cases before continuing.
{"compound": "COc1cc(/C=C\\c2ccc(OC)c(OP(=O)([O-])[O-])c2OP(=O)([O-])[O-])cc2c1OCO2.[K+].[K+].[K+].[K+]", "unit text": "µg/mL", "GI50": 1.4}
{"compound": "COc1cc(/C=C\\c2ccc(OC)c(OP(=O)([O-])[O-])c2OP(=O)([O-])[O-])cc(OP(=O)([O-])[O-])c1OC.[Ca+2].[Ca+2].[Ca+2]", "unit text": "µg/mL", "GI50": 0.35}
{"compound": "COc1ccc(/C=C\\c2cc(OC)c(OC)c(OC)c2)cc1OP(=O)([O-])[O-].[Na+].[Na+] [FOSBRETABULIN DISODIUM]", "unit text": "µg/mL", "GI50": 0.0004}

// input: 2 compounds below; output: GI50 for each
1. COc1cc(/C=C\c2ccc(OC)c(OP(=O)([O-])[O-])c2OP(=O)([O-])[O-])cc(OP(=O)([O-])[O-])c1OC.[Na+].[Na+].[Na+].[Na+].[Na+].[Na+]
2. COc1cc(/C=C\c2ccc(OC)c(OP(=O)([O-])[O-])c2OP(=O)([O-])[O-])cc(OP(=O)([O-])[O-])c1OC.[K+].[K+].[K+].[K+].[K+].[K+]

1: 0.3; 2: 0.3

---

Test system: SF-268
assay remarks: Antitumor activity against human SF268 cells by sulforhodamine B assay
Type: functional
Doc: threshold 2 µg/mL (exclusive). Items with GI50 beneath it return true (1); others return false (0).

{"compound": "COc1cc(/C=C\\c2ccc(OC)c(OP(=O)([O-])[O-])c2OP(=O)([O-])[O-])cc(OP(=O)([O-])[O-])c1OC.[Ca+2].[Ca+2].[Ca+2]", "answer label": "true (1)"}
{"compound": "COc1ccc(/C=C\\c2cc(O)c(OC)c(OC)c2)c(O)c1O", "answer label": "true (1)"}
{"compound": "COc1cc(/C=C\\c2ccc(OC)c(OP(=O)([O-])[O-])c2OP(=O)([O-])[O-])cc(OP(=O)([O-])[O-])c1OC.[Li+].[Li+].[Li+].[Li+].[Li+].[Li+]", "answer label": "true (1)"}
{"compound": "COc1cc(/C=C\\c2ccc(OC)c(OP(=O)([O-])[O-])c2OP(=O)([O-])[O-])cc(OP(=O)([O-])[O-])c1OC.[K+].[K+].[K+].[K+].[K+].[K+]", "answer label": "true (1)"}
{"compound": "COc1cc(/C=C\\c2ccc(OC)c(O[Si](C)(C)C(C)(C)C)c2O[Si](C)(C)C(C)(C)C)cc2c1OCO2", "answer label": "false (0)"}

Turning to the following compound.
I wonder whether COc1cc(/C=C\c2ccc(OC)c(OP(=O)([O-])[O-])c2OP(=O)([O-])[O-])cc2c1OCO2.[Li+].[Li+].[Li+].[Li+] has GI50 below 2 µg/mL. Can you tell?
false (0)

---

System: SF-268
assay remarks: Antitumor activity against human SF268 cells by sulforhodamine B assay
Assay type: functional
measured property: GI50 (mg/L)
Numbers only, in mg/L.

List GI50 for every entry below, keeping the order given.
1. COc1cc(/C=C\c2ccc(OC)c(OP(=O)([O-])[O-])c2OP(=O)([O-])[O-])cc2c1OCO2.[Na+].[Na+].[Na+].[Na+]
2. COc1cc(/C=C\c2ccc(OC)c(OP(=O)([O-])[O-])c2OP(=O)([O-])[O-])cc(OP(=O)([O-])[O-])c1OC.[Zn+2].[Zn+2].[Zn+2]
3. COc1cc(/C=C\c2ccc(OC)c(OP(=O)([O-])[O-])c2OP(=O)([O-])[O-])cc(OP(=O)([O-])[O-])c1OC.[Na+].[Na+].[Na+].[Na+].[Na+].[Na+]
4. COc1cc(/C=C\c2ccc(OC)c(OP(=O)([O-])[O-])c2OP(=O)([O-])[O-])cc(OP(=O)([O-])[O-])c1OC.[Mg+2].[Mg+2].[Mg+2]
5. COc1cc(/C=C\c2ccc(OC)c(OP(=O)([O-])[O-])c2OP(=O)([O-])[O-])cc(OP(=O)([O-])[O-])c1OC.[Rb+].[Rb+].[Rb+].[Rb+].[Rb+].[Rb+]

1: 2.8; 2: 4.5; 3: 0.34; 4: 0.63; 5: 4.3

Given the entry COc1cc(/C=C\c2ccc(OC)c(OP(=O)([O-])[O-])c2OP(=O)([O-])[O-])cc2c1OCO2.[K+].[K+].[K+].[K+] , what GI50 was observed with SF-268?
0.65
